test.target: human recombinant BACE1 (Homo sapiens)
Construct: purchased PanVera, Wis., USA
Sequence (P56817 46-501): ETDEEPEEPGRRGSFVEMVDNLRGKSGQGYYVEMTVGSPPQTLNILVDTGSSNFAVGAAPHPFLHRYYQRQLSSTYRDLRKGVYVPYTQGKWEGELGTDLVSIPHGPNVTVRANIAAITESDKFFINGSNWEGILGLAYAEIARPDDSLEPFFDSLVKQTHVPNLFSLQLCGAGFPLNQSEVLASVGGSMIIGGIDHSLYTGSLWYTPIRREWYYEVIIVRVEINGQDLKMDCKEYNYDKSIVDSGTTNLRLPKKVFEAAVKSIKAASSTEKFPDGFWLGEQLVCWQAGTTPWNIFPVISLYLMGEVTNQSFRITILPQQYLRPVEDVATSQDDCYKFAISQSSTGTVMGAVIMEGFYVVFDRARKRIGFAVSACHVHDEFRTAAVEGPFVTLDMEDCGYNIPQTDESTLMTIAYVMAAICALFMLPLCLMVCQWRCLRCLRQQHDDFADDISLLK
protocol.text: β-secretase inhibition, human recombinant BACE1 assay kit (PanVera), fluorescence
Format: biochemical
measurement.conditions: read-out: BACE Inhibition at 10 nM
readout.name: inhibition at 0.01 µM (%)

[
  {
    "compound": "Oc1cc(O)cc(Oc2c(O)cc(O)c3c2Oc2c(cc4oc5cc(O)cc(O)c5c4c2O)O3)c1 [Chemical Formula 4-3]",
    "readout.name": "inhibition at 0.01 µM",
    "observed.result": 70
  },
  {
    "compound": "Oc1cc(O)cc(Oc2c(O)cc(O)c3c2Oc2c(cc4oc5c(Oc6cc(O)cc(O)c6)c(O)cc(O)c5c4c2O)O3)c1 [Chemical Formula 4-4]",
    "readout.name": "inhibition at 0.01 µM",
    "observed.result": 86
  },
  {
    "compound": "Oc1cc(O)c2c(c1)Oc1c(O)cc3oc4cc(O)cc(O)c4c3c1O2 [Chemical Formula 3-1]",
    "readout.name": "inhibition at 0.01 µM",
    "observed.result": 53
  },
  {
    "compound": "Oc1cc(O)cc(Oc2c(O)cc(O)c3c2oc2cc(O)c4c(c23)Oc2c(O)cc(O)cc2O4)c1 [Chemical Formula 3-2]",
    "readout.name": "inhibition at 0.01 µM",
    "observed.result": 87
  },
  {
    "compound": "Oc1cc(O)cc(Oc2c(O)cc(O)c3c2oc2cc4c(c(O)c23)Oc2cc(O)cc(O)c2O4)c1 [Chemical Formula 4-2]",
    "readout.name": "inhibition at 0.01 µM",
    "observed.result": 77
  },
  {
    "compound": "Oc1cc(O)cc(Oc2c(O)cc(O)c3c2Oc2c(O)cc4oc5cc(O)cc(O)c5c4c2O3)c1 [Chemical Formula 3-4]",
    "readout.name": "inhibition at 0.01 µM",
    "observed.result": 90
  }
]

1: Oc1cc(O)c2c(c1)Oc1c(cc3oc4cc(O)cc(O)c4c3c1O)O2 [Chemical Formula 4-1]
2: Oc1cc(O)cc(Oc2c(O)cc3c(c2O)Oc2c(c(O)cc4oc5c(Oc6cc(O)cc(O)c6)c(O)cc(O)c5c24)O3)c1 [Chemical Formula 3-6]
Kindly compare 1 with 2 and tell me which has the lower inhibition at 0.01 µM figure. Choose, then provide that item's label.
1

Source: patent US20120122822A1
